biological target: UniProt P63000; assay: activated mutant Rac1 GTP binding inhibitors, SAR follow-up, biochemical, pyrazoline analogs, multiplex bead flow cytometry (AID 2048); details: Bead-based flow cytometry, Bodipy-FL-GTP binding to GST-Rac1; measured here: Ki calculated from EC50
measured.metric: Ki (nM)
Field format: number, assumed nM, no unit text.

Example molecules with recorded Ki:
| molecule | Ki [nM] |
| --- | --- |
| COc1ccc(C2CC(C)=NN2c2ccc(S(N)(=O)=O)cc2)cc1 (centres undefined) | 10 |
| COc1ccc(C2CC(c3ccccc3Br)=NN2c2ccc(S(N)(=O)=O)cc2)cc1 (centres undefined) | 40 |
| COc1ccc(C2CC(c3ccc(Cl)cc3)=NN2c2ccccc2)cc1OC (centres undefined) | 10 |
| COc1ccc(C2=NN(c3ccc(Cl)cc3)C(c3ccccc3F)C2)cc1 (centres undefined) | 3260 |
| COc1ccc(C2CC(c3ccc(Br)cc3)=NN2c2ccccc2Cl)cc1 (centres undefined) | 60 |

Value of Ki reported for the molecule COc1ccc(C2CC(c3ccc(F)cc3)=NN2c2cccc(F)c2)cc1OC (centres undefined) is 3030

Value of Ki reported for the molecule COc1ccc(C2=NN(c3ccccc3)C(c3ccc(Cl)cc3)C2)cc1 (centres undefined) is 840

Value of Ki reported for the molecule O=S(=O)(c1ccc(N2N=C(c3ccc(Br)cc3)CC2c2ccccc2)cc1)C(F)F (centres undefined) is 790

Value of Ki reported for the molecule Cc1ccc(-c2cc(C(F)(F)F)nn2-c2ccc(S(N)(=O)=O)cc2)cc1 is 3910
